Target: USP9X (Homo sapiens (Human), UniProt Q93008)
Sequence (Q93008 whole entry): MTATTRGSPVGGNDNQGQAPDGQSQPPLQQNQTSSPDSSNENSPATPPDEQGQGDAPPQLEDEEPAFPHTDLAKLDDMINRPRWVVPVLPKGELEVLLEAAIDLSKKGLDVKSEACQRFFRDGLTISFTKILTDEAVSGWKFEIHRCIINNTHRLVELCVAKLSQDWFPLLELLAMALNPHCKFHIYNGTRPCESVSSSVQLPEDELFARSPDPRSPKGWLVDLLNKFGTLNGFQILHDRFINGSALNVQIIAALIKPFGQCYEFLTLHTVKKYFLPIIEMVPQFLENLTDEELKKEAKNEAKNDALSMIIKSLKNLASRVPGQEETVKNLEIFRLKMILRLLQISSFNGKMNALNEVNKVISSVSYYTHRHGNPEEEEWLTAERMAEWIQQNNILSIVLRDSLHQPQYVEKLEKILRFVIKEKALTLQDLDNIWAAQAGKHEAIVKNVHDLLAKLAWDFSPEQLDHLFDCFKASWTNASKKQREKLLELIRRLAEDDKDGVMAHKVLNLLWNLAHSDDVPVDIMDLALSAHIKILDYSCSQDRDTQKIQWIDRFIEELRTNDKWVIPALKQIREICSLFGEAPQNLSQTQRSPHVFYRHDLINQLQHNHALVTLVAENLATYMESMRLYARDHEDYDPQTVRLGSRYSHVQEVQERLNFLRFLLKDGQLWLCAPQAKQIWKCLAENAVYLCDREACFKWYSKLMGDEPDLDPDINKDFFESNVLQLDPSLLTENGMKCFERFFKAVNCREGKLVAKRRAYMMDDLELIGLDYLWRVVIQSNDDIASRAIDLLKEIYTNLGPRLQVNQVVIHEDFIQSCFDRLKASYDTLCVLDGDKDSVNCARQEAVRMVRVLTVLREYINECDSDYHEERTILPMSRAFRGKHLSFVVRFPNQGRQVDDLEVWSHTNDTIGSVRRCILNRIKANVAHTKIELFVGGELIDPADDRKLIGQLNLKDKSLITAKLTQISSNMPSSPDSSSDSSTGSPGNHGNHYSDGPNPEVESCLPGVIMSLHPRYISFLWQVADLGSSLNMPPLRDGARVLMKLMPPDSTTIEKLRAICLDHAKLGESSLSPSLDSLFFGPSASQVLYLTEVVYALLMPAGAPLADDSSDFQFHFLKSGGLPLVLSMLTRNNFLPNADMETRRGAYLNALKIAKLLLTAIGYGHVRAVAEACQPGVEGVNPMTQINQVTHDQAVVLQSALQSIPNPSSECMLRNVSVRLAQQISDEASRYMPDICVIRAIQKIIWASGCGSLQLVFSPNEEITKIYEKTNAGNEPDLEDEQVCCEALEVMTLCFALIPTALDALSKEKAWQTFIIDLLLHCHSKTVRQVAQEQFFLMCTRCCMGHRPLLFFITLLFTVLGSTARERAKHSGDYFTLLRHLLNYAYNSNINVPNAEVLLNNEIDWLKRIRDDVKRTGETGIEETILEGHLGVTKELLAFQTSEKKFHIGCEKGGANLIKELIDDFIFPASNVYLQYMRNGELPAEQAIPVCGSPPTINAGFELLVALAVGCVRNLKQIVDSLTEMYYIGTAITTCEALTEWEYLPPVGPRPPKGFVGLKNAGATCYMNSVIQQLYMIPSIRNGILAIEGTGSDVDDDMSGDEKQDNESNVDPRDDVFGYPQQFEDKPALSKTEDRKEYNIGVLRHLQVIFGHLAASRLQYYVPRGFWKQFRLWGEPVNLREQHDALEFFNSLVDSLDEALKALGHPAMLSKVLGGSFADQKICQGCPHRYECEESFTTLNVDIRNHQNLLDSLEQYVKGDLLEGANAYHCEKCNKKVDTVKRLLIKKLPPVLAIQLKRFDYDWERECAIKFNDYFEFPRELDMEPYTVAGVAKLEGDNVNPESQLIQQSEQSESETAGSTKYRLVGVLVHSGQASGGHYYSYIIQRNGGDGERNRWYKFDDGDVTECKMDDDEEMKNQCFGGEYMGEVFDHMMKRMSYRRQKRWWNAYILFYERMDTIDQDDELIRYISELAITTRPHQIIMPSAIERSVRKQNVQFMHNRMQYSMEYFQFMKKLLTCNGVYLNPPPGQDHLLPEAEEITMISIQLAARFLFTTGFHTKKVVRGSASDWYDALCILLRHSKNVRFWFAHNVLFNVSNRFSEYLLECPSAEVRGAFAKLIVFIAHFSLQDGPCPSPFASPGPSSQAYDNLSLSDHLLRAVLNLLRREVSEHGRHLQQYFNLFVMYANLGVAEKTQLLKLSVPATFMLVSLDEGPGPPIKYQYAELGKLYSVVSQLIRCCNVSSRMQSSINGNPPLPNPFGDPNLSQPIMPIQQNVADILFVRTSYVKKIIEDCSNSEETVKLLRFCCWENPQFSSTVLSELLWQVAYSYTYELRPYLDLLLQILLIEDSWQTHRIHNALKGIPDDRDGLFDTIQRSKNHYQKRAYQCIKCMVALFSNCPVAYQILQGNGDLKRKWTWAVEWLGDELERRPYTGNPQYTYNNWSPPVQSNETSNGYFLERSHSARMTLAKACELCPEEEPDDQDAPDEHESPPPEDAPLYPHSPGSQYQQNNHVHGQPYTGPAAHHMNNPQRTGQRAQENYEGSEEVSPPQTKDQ
Assay: USP9X enzyme activity assay, ubiquitin-rhodamine110 substrate
Conditions: read-out: USP9X IC50/UM; Table 8
Below: a set of entries, each annotated with reported IC50.

Molecule	IC50 (µM)
CNC(=O)c1ccc(OCCNC(=O)CC(C)(C)CC(=O)NCCc2ccc(NC(=O)[C@H](CC(C)(C)C)NC(=O)c3cccc(CNC(C)=O)c3)cc2)cc1 [Compound 74]	12
CNCCOc1ccc(C(=O)NCc2cccc(C(=O)N[C@@H](CC(C)(C)C)C(=O)Nc3ccc(Cn4ccnc4)cc3)c2)cc1 [Compound 10]	0.091
CNCCOc1ccc(C(=O)NCc2cccc(C(=O)N3CCCC3C(=O)Nc3ccc(CCC(=O)O)cc3)c2)cc1 (stereo not drawn) [Compound 35]	7
